# Tested on: Meloidogyne incognita
# ASSAY PROTOCOL: Meloidogyne incognita test (sand, salad seedlings, gall formation)
# Type: in vivo
# TEST SETTINGS: application rate 20 ppm, after 14 days, 100% = no galls, 0% = galls equal to untreated control
Examples of compounds with documented nematicidal activity on the basis of the percentage of gall formation follow.
Write it as a number; the unit % goes unstated.

Before answering, review these 4 worked examples.
SMILES NOTATION: O=C(NS(=O)(=O)c1ccccc1Cl)c1cc2cc(C(F)(F)F)ccn2n1
ASSAY VALUE: 100

SMILES NOTATION: CS(=O)(=O)NC(=O)c1cc2c(Cl)cc(C(F)(F)F)cn2n1
ASSAY VALUE: 90

SMILES NOTATION: CCSc1cccc(Cl)c1S(=O)(=O)NC(=O)c1cc2cc(C(F)(F)F)cc(Cl)n2n1
ASSAY VALUE: 100

SMILES NOTATION: O=C(NS(=O)(=O)c1c(F)cccc1Cl)c1cc2cc(C(F)(F)F)ccn2n1
ASSAY VALUE: 100

Provide nematicidal activity on the basis of the percentage of gall formation, system Meloidogyne incognita, entry CSc1ccc(Cl)c(S(=O)(=O)NC(=O)c2cc3cc(Cl)cc(Cl)n3n2)c1 100

Given CSc1cccc(Cl)c1S(=O)(=O)NC(=O)c1cc2cc(Cl)cc(Cl)n2n1 , report its nematicidal activity on the basis of the percentage of gall formation on Meloidogyne incognita. 90

# return nematicidal activity on the basis of the percentage of gall formation for O=C(NS(=O)(=O)c1c(Cl)cccc1Cl)c1cc2ccc(C(F)(F)F)cn2n1 , test system: Meloidogyne incognita 90

Would you please give the reported nematicidal activity on the basis of the percentage of gall formation of CCS(=O)(=O)NC(=O)c1cc2cc(C(F)(F)F)cc(Cl)n2n1 with Meloidogyne incognita? 90

* * *

The reader will find reported nematicidal activity on the basis of the percentage of gall formation values listed item by item below.
# Test system: Meloidogyne incognita
# ASSAY PROTOCOL: Meloidogyne incognita test (sand, salad seedlings, gall formation)
# Format: in vivo
# TEST SETTINGS: application rate 20 ppm, after 14 days, 100% = no galls, 0% = galls equal to untreated control
Your answer is read as %, so omit the unit and give the number.

SMILES NOTATION: O=C(NS(=O)(=O)c1cc(C(F)(F)F)ccc1Cl)c1cc2cc(C(F)(F)F)cc(Cl)n2n1
ASSAY VALUE: 100

Provide nematicidal activity on the basis of the percentage of gall formation value for the following molecule: O=C(NS(=O)(=O)C1CC1)c1cc2c(Cl)cc(C(F)(F)F)cn2n1 100

Output measured nematicidal activity on the basis of the percentage of gall formation for this item: CCc1ccc(C)c(S(=O)(=O)NC(=O)c2cc3cc(C(F)(F)F)cc(Cl)n3n2)c1 100

Supply recorded nematicidal activity on the basis of the percentage of gall formation for COc1ccc(Br)c(S(=O)(=O)NC(=O)c2cc3cc(Cl)cc(Cl)n3n2)c1 here. 100

Check the records and state nematicidal activity on the basis of the percentage of gall formation for O=C(NS(=O)(=O)c1ccccc1C(F)(F)F)c1cc2c(Cl)cc(C(F)(F)F)cn2n1 90

Given O=C(NS(=O)(=O)c1cc(Cl)ccc1Cl)c1cc2ccc(C(F)(F)F)cn2n1 , respond with its nematicidal activity on the basis of the percentage of gall formation. 90

Give a short answer stating reported nematicidal activity on the basis of the percentage of gall formation for CC(C)Nc1cccc(F)c1S(=O)(=O)NC(=O)c1cc2cc(Cl)cc(Cl)n2n1 . 90

Consider the molecule O=C(NS(=O)(=O)c1ccccc1OC(F)(F)F)c1cc2c(Cl)cc(C(F)(F)F)cn2n1 . State its measured nematicidal activity on the basis of the percentage of gall formation. 90
